The reported numbers originate from patent US11807625B2.

- method: PK of compound of Formula (Ia) after single subcutaneous dose of solution formulations in Wistar Han rats
- Format: in vivo
- experimental-context: male, Wistar Han, rat, plasma, sc, 50 mg/kg, 48.0 h; individual rats; SC 50 mg/kg; solution V, 300 mg/mL
parameter: concentration at 48 h (nM)
Entry rule: numbers only, all in nM.

Q: Please look up its concentration at 48 h: CC(C)(C#Cc1ccc(-c2ccc(Cl)c3c(NS(C)(=O)=O)nn(CC(F)(F)F)c23)c([C@H](Cc2cc(F)cc(F)c2)NC(=O)Cn2nc(C(F)(F)F)c3c2C(F)(F)[C@@H]2C[C@H]32)n1)S(C)(=O)=O
Result: 265
